pEC50 for assorted compounds
- System: NRF2 mediated gene NAD(P)H:quinone acceptor oxidoreductase 1 (NQO1) in BEAS-2B cells
- assay.details: Beas2B NQO1 mRNA Cell Based Assay
- Design: species or system human
- measurement.parameters: Homo sapiens; BEAS-2B cells, compound for 24 h; increase in NQO1 mRNA compared to vehicle (0.1% DMSO) control; read-out: EC50
pEC50: −log10 of the molar value.
test.readout: pEC50

> print(dat)
                            molecule.smiles  measured.value
1  Cn1nnc(COc2c(F)cc(Cl)c3c2[C@@H](CN2CC4(CC4)CC2=O)N(C(=O)[C@@H]2CCCC[C@]2(C)C(N)=O)CC3)c1C(F)F            7.43
2  CNC(=O)[C@@]1(C)CCCC[C@H]1C(=O)N1CCc2c(Cl)cc(F)c(OCc3nnn(C)c3C(F)F)c2[C@H]1CN1CCCC1=O            6.85
3  O=C(NCC(F)(F)CO)[C@H]1CCCC[C@H]1C(=O)N1CCc2cccc(O[C@H]3CCN(C(=O)c4cncs4)C3)c2[C@H]1CN1C(=O)c2ccccc2C1=O            6.71

====

- experimental.target: human KEAP1 (N-term, residues 321-609) (Homo sapiens, UniProt Q14145)
- Construct: human KEAP1 (N-term, residues 321-609)
- Sequence (Q14145 321-609): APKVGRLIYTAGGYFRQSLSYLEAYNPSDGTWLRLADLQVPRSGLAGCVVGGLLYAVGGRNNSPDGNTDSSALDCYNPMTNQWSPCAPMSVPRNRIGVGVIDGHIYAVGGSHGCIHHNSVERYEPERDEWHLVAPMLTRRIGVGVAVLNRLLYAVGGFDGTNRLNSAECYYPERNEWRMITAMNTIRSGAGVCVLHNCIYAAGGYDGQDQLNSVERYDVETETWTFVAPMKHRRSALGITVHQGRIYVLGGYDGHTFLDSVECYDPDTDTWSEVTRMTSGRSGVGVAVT
- assay.details: KEAP1 Kelch Fluorescence Polarization (FP) Assay
- measurement.parameters: inhibition of Kelch domain-NRF2 interaction; 2 nM FITC-labelled NRF2 peptide, 25 nM KEAP1, 1 h room temperature; compounds below 10 nM cannot be differentiated
pIC50: −log10 of the molar value.
pIC50 for assorted molecules
test.readout: pIC50

> print(dat)
                            molecule.smiles  measured.value
1  O=C(NCC(F)(F)CO)[C@H]1CCCC[C@H]1C(=O)N1CCc2cccc(O[C@H]3CCN(C(=O)c4cncs4)C3)c2[C@H]1CN1C(=O)c2ccccc2C1=O            7.44
2  CNC(=O)[C@H]1CCCC[C@H]1C(=O)N1CCc2cccc(OCCCC(=O)O)c2[C@H]1CN1C(=O)c2ccccc2C1=O            7.08
3  CNC(=O)[C@H]1CCCC[C@H]1C(=O)N1CCc2cccc(O[C@H]3CCN(C(=O)c4cccnc4)C3)c2[C@H]1CN1C(=O)c2ccccc2C1=O            7.03

====

- Test system: NRF2 mediated gene NAD(P)H:quinone acceptor oxidoreductase 1 (NQO1) in BEAS-2B cells
- assay.details: Beas2B NQO1 mRNA Cell Based Assay
- Set-up: species or system human
- measurement.parameters: Homo sapiens; BEAS-2B cells, compound for 24 h; increase in NQO1 mRNA compared to vehicle (0.1% DMSO) control; read-out: EC50
pEC50: −log10 of the molar value.
pEC50 below 6 gives -1; pEC50 at or above it gives 1.

> print(dat)
                                   compound  class.assignment
1  CNC(=O)[C@H]1CCCC[C@H]1C(=O)N1CCc2c(Cl)ccc(OCc3ccc4ncn(C)c4n3)c2[C@H]1CN1CCCC1=O [Example 80]                -1
2  CNC(=O)[C@H]1CCCC[C@H]1C(=O)N1CCc2c(Cl)ccc(OCc3nnc4ccccn34)c2[C@H]1CN1Cc2ccccc2C1=O [Example 77]                 1
3  CNC(=O)[C@H]1CCCC[C@H]1C(=O)N1CCc2c(Cl)ccc(OCc3ccc4c(c3)nnn4C)c2[C@H]1CN1CCCC1=O [Example 72]                 1
4  CNC(=O)[C@@]1(C)CCCC[C@H]1C(=O)N1CCc2c(Cl)ccc(OCc3noc4ccccc34)c2[C@H]1CN1CCCC1=O [Example 83]                 1
5  O=C(NCC(F)(F)CO)[C@H]1CCCC[C@H]1C(=O)N1CCc2c(Cl)ccc(OCc3noc4ccccc34)c2[C@H]1CN1CCCC1=O [Example 78]                -1
6  CNC(=O)[C@H]1CCCC[C@H]1C(=O)N1CCc2c(Br)ccc(OCc3nnn(C)c3C(F)F)c2[C@H]1CN1Cc2ccccc2C1=O [Example 56]                 1

====

- experimental.target: human KEAP1 (N-term, residues 321-609) (Homo sapiens)
- Construct: human KEAP1 (N-term, residues 321-609)
- assay.details: KEAP1 Kelch Fluorescence Polarization (FP) Assay
- measurement.parameters: inhibition of Kelch domain-NRF2 interaction; 2 nM FITC-labelled NRF2 peptide, 25 nM KEAP1, 1 h room temperature; compounds below 10 nM cannot be differentiated
- Description: KEAP1 Kelch Fluorescence Polarization (FP) Assay Method Inhibition of the Kelch domain-NRF2 interaction was determined using a fluorescence polarization-based competition assay in a black 384-well microplate. […] After 1 h at room temperature, fluorescence polarization (excitation 470 nm/emission 530 nm) was measured using an Envision plate reader. IC50 values were determined by fitting the data to a four parameter logistic fit using XLfit or XE Runner within ActivityBase. […]
pIC50: −log10 of the molar value.
pIC50 for assorted compounds
test.readout: pIC50

> print(dat)
                            molecule.smiles  measured.value
1  CNC(=O)[C@H]1CCCC[C@H]1C(=O)N1CCc2c(Cl)ccc(OCc3cccnn3)c2[C@H]1CN1CCCC1=O            7.47
2  CNC(=O)[C@H]1CCCC[C@H]1C(=O)N1CCc2cccc(O[C@H]3CCN(S(=O)(=O)c4cnoc4C)C3)c2[C@H]1CN1C(=O)c2ccccc2C1=O            6.44
3  CNC(=O)[C@@]1(C)CCCC[C@H]1C(=O)N1CCc2c(Cl)ccc(OCc3nnn(C)c3C)c2[C@H]1CN1CCCC1=O            8.10
4  Cn1nnc(COc2ccc(Cl)c3c2[C@@H](CN2CCCC2=O)N(C(=O)[C@@H]2CCCCN2C(=O)C(F)F)CC3)c1C(F)F            6.79
5  CNC(=O)N[C@@H](C)C(=O)N1CCc2cccc(O[C@H]3CCN(C(=O)c4cncs4)C3)c2[C@H]1CN1C(=O)c2ccccc2C1=O            6.90
6  CNC(=O)[C@H]1CCCC[C@H]1C(=O)N1CCc2cccc(O[C@H]3CCN(C(=O)c4cncs4)C3)c2[C@H]1CNC(C)=O            5.93

====

- Test system: NRF2 mediated gene NAD(P)H:quinone acceptor oxidoreductase 1 (NQO1) in BEAS-2B cells
- assay.details: Beas2B NQO1 mRNA Cell Based Assay
- Parameters: species or system human
- measurement.parameters: Homo sapiens; BEAS-2B cells, compound for 24 h; increase in NQO1 mRNA compared to vehicle (0.1% DMSO) control; read-out: EC50
EC50 for assorted compounds
test.readout: EC50 (nM)

> print(dat)
                            molecule.smiles  measured.value
1  CNC(=O)[C@@]1(C)CCC[C@H]1C(=O)N1CCc2c(Cl)ccc(OCc3nnn(C)c3C(F)F)c2[C@H]1CN1CC2(CC2)CC1=O             148
2  CNC(=O)N1CCCC[C@H]1C(=O)N1CCc2c(Cl)ccc(OCc3cn(C)nn3)c2[C@H]1CN1CCCC1=O             565
3  CNC(=O)[C@H]1CCCC[C@H]1C(=O)N1CCc2c(Cl)ccc(OCc3noc4ccccc34)c2[C@H]1CN1CCCC1=O             285
4  CCNC(=O)[C@H]1CCCC[C@H]1C(=O)N1CCc2c(Cl)ccc(OCc3noc4ccccc34)c2[C@H]1CN1CCCC1=O             189

====

pIC50 for assorted molecules
- experimental.target: human KEAP1 (N-term, residues 321-609) (Homo sapiens, UniProt Q14145)
- Construct: human KEAP1 (N-term, residues 321-609)
- assay.details: KEAP1 Kelch Fluorescence Polarization (FP) Assay
- measurement.parameters: inhibition of Kelch domain-NRF2 interaction; 2 nM FITC-labelled NRF2 peptide, 25 nM KEAP1, 1 h room temperature; compounds below 10 nM cannot be differentiated
pIC50: −log10 of the molar value.
test.readout: pIC50

> print(dat)
                                    molecule  measured.value
 1  CNC(=O)[C@H]1CCCC[C@H]1C(=O)N1CCc2c(Br)ccc(O[C@H]3CCN(C(C)=O)C3)c2[C@H]1CN1C(=O)c2ccccc2C1=O            7.14
 2  CNC(=O)[C@H]1CCCC[C@H]1C(=O)N1CCc2c(Cl)ccc(OCc3noc4ccccc34)c2[C@H]1CN1CCCC1=O            7.42
 3  CNC(=O)[C@H]1CCCC[C@H]1C(=O)N1CCc2cccc(OCCNS(=O)(=O)c3cnoc3C)c2[C@H]1CN1C(=O)c2ccccc2C1=O            6.77
 4  CNC(=O)[C@@]1(C)CCCC[C@H]1C(=O)N1CCc2c(Cl)ccc(OCc3cn(C)nn3)c2[C@H]1CN1C[C@H](C)CC1=O            7.96
 5  CNC(=O)N1CCOC[C@H]1C(=O)N1CCc2c(Cl)ccc(OCc3nnn(C)c3C(F)F)c2[C@H]1CN1CCCC1=O            7.41
 6  O=C(NCC(F)F)[C@H]1CCCC[C@H]1C(=O)N1CCc2cccc(O[C@H]3CCN(C(=O)c4cncs4)C3)c2[C@H]1CN1C(=O)c2ccccc2C1=O            6.27
 7  CNC(=O)[C@H]1CCCC[C@H]1C(=O)N1CCc2c(Cl)ccc(OCc3ccc4c(C)noc4n3)c2[C@H]1CN1CCCC1=O            7.77
 8  NC(=O)[C@H]1CCCC[C@H]1C(=O)N1CCc2cccc(OCCCC(=O)N3CCCC3)c2[C@H]1CN1C(=O)c2ccccc2C1=O            6.05
 9  CNC(=O)[C@H]1CCCC[C@H]1C(=O)N1CCc2c(Cl)ccc(OCc3nnc4ccccn34)c2[C@H]1CN1Cc2ccccc2C1=O            8.14
10  CCNC(=O)[C@H]1CCCC[C@H]1C(=O)N1CCc2cccc(O[C@H]3CCN(C(=O)c4cncs4)C3)c2[C@H]1CN1C(=O)c2ccccc2C1=O            7.28
11  NC(=O)[C@H]1CCCC[C@H]1C(=O)N1CCc2c(Cl)ccc(OCc3noc4ccccc34)c2[C@H]1CN1CCCC1=O [Example 54, reference compound]            7.51
12  CNC(=O)[C@H]1CCCC[C@H]1C(=O)N1CCc2c(Cl)ccc(OCc3cncnc3)c2[C@H]1CN1CCCC1=O            7.39
13  CNC(=O)[C@H]1CCCC[C@H]1C(=O)N1CCc2c(Cl)ccc(OCc3nnn(C)c3C(F)F)c2[C@H]1CN1CC2(CC2)CC1=O            8.04
14  CNC(=O)[C@H]1CCCC[C@H]1C(=O)N1CCc2c(Cl)ccc(OCc3nnn(C)c3C(F)F)c2[C@H]1CN1CCCC1=O            7.96
15  CNC(=O)CCCC(=O)N1CCc2cccc(O[C@H]3CCN(C(=O)c4cncs4)C3)c2[C@H]1CN1C(=O)c2ccccc2C1=O            6.28
16  CNC(=O)[C@@]1(C)CCCC[C@H]1C(=O)N1CCc2c(Cl)ccc(OCc3nnn(C)c3C)c2[C@H]1CN1CC2(CC2)CC1=O            8.21
17  CNC(=O)[C@H]1CCCC[C@H]1C(=O)N1CCc2c(Cl)ccc(OCc3ccc4c(c3)nnn4C)c2[C@H]1CN1CCCC1=O            7.57
18  CNC(=O)N1CC2(CC2)C[C@H]1C(=O)N1CCc2c(Cl)ccc(OCc3nnn(C)c3C(F)F)c2[C@H]1CN1CCCC1=O            7.17
19  Cn1nnc(COc2c(F)cc(Cl)c3c2[C@@H](CN2CC4(CC4)CC2=O)N(C(=O)[C@@H]2CCCC[C@]2(C)C(N)=O)CC3)c1C(F)F            8.21
20  CNC(=O)[C@H]1CCCC[C@H]1C(=O)N1CCc2cccc(O[C@H]3CCN(C(=O)c4cncnc4)C3)c2[C@H]1CN1C(=O)c2ccccc2C1=O            6.74
21  CNC(=O)[C@H]1CCCC[C@H]1C(=O)N1CCc2c(Cl)ccc(OCc3nnc4ccccn34)c2[C@H]1CN1CCCC1=O            8.03
22  CNC(=O)[C@H](C)[C@@H](C)C(=O)N1CCc2c(Cl)ccc(OCc3noc(C(C)C)n3)c2[C@H]1CN1CCCC1=O            6.27
23  CNC(=O)[C@H]1CCCC[C@H]1C(=O)N1CCc2c(Cl)ccc(OCc3cn4cccnc4n3)c2[C@H]1CN1CCCC1=O            7.14
24  CNC(=O)[C@@]1(C)CCCC[C@H]1C(=O)N1CCc2c(Cl)ccc(OCc3nnn(C)c3COC)c2[C@H]1CN1C[C@H](C)CC1=O            7.77
25  Cc1c(COc2c(F)cc(Cl)c3c2[C@@H](CN2CC4(CC4)CC2=O)N(C(=O)[C@@H]2CCCC[C@]2(C)C(N)=O)CC3)nnn1C            8.15
